# assay_system: human Claudin18.2 (CLDN18.2) (UniProt P56856 1-261)
# experiment_notes: FACS cell binding; GAXC031 cells
pEC50: −log10 of the molar value.
endpoint: pEC50

>>> endpoint_result("humanized Ab15 (VHN1×VL2) (antibody, V domains shown) VH: EVMLVESGGGLVQPGGSLRLSCAASGFTFSTYTMSWVRQTPGKRLEWVATIVGGGGYTYYLDSVKGRFTISRDNSKNTLYLQMNSLRAEDTAVYYCARMGLTQRNALDYWGQGTSITVSS VL: DIVMTQSPLSLPVTPGEPASISCKSSQSLFNSGNQKNYLAWYLQKPGQPPKLLIYGASTRESGVPDRFTGSGFGTDFTLKISRVEAEDVGVYYCQNDHTYPLTFGAGTKLEIK")
7.49
>>> endpoint_result("humanized Ab10 (VH3×VLN1) (antibody, V domains shown) VH: EVQLVESGGGLVQPGGSLRLSCAASGFTFSSYTMSWVRQAPEKRLEWVATISVIGGNTYYVDSVKGRFTISRDKAKNTLYLQMNSLRAEDTALYYCARLGQTQRNAMDYWGQGTLVTVSS VL: DIVMTQSPDSLAVSAGERATMNCKSSQSLLNSGNQKNYLAWYQQKPGQPPKLLIYGASTRESGVPDRFSGSGSGTDFTLTISSLQAEDVAVYYCQNDYSYPLTFGAGTKLEIK")
7.22
>>> endpoint_result("humanized Ab17 (VH1×VLN1) (antibody, V domains shown) VH: QVQLKESGPGLVKPSETLSLTCTVSGFSLTSYAISWVRQPPGKGLEWLGEIWTGGGTNYNSALKSRVSISKDNSKSQVFLKLSSVQAADTARYYCGRLSYGNSLDYWGQGTLVTVSS VL: DIVMTQSPDSTTVLLGERATINCKSSQSLLNSGNQKNYLAWYQQKPGQPPKLLIYWASTRESGVPDRFSGSGSGTDFTLTISSLQAEDVAVYYCQNNFIYPLTFGPGTKLEIK")
7.36
